assay: in vivo; set-up: species or system male Wistar rats; conditions: rat, im, 120 mg/kg
recorded endpoint: concentration at 456 h (ng/mL)
The answer is to be given in ng/mL; state only the numeric part.

Q: Supply recorded concentration at 456 h for "CCCCCCCCCC(=O)O[C@@H](c1cccc(OC)c1OC)C1CCN(CCc2ccc(F)cc2)CC1" here.
A: 40.1

###

experiment: in vivo; parameters: species or system male Wistar rats; conditions: rat, im, 120 mg/kg
recorded endpoint: concentration at 288 h (µg/mL)
The answer is to be given in µg/mL; state only the numeric part.

Q: Supply recorded concentration at 288 h for "CCCCCCCCCC(=O)O[C@@H](c1cccc(OC)c1OC)C1CCN(CCc2ccc(F)cc2)CC1" here.
A: 0.021

###

assay: in vivo; set-up: species or system male Wistar rats; settings: rat, im, 120 mg/kg
recorded endpoint: concentration at 96 h (ng/mL)
The answer is to be given in ng/mL; state only the numeric part.

Q: Supply recorded concentration at 96 h for "CCCCCCCCCC(=O)O[C@@H](c1cccc(OC)c1OC)C1CCN(CCc2ccc(F)cc2)CC1" here.
A: 52

###

test: in vivo; set-up: species or system male Wistar rats; conditions: rat, im, 120 mg/kg
recorded endpoint: concentration at 48 h (ng/mL)
The answer is to be given in ng/mL; state only the numeric part.

Q: Supply recorded concentration at 48 h for CCCCCCCCCC(=O)O[C@@H](c1cccc(OC)c1OC)C1CCN(CCc2ccc(F)cc2)CC1 [Example 4] here.
A: 21.6

###

assay: in vivo; set-up: species or system male Wistar rats; conditions: rat, im, 120 mg/kg
recorded endpoint: concentration at 192 h (ng/mL)
The answer is to be given in ng/mL; state only the numeric part.

Q: Supply recorded concentration at 192 h for "CCCCCCCCCC(=O)O[C@@H](c1cccc(OC)c1OC)C1CCN(CCc2ccc(F)cc2)CC1" here.
A: 28.7
